Data credit: the supplement of paper PMC10307832

System: PC-3 [JPC-3]
Assay: relative viability (nuclei count vs DMSO), 5 days (fraction); higher = more cells survive
Settings: first compound 0.1265 µM
reported.endpoint: relative viability

compound | recorded.measurement
Clc1ccc(Nc2nnc(Cc3ccncc3)c3ccccc23)cc1 [Vatalanib] + Nc1ncn([C@H]2C[C@H](O)[C@@H](CO)O2)c(=O)n1 [Decitabine] (partner 2 µM) | 0.81
C[C@@H]1CN(CC(=O)Nc2ccc3c(c2)Cc2cccc(-c4cc(=O)cc(N5CCOCC5)o4)c2S3)C[C@H](C)O1 + CC(C)C[C@H](NC(=O)[C@H](Cc1ccccc1)NC(=O)c1cnccn1)B(O)O [Bortezomib] (partner 0.002 µM) | 0.771
Clc1ccc(Nc2nnc(Cc3ccncc3)c3ccccc23)cc1 [Vatalanib] + CC(C)C[C@H](NC(=O)[C@H](Cc1ccccc1)NC(=O)c1cnccn1)B(O)O [Bortezomib] (partner 0.002 µM) | 0.828
COc1cc(N2CCC(C(N)=O)CC2)ccc1Nc1nc(N)c(Cl)c(Nc2ccccc2S(=O)(=O)C(C)C)n1 [HG-5-88-01] + COc1cccc2cc(-c3nc([C@H]4CC[C@H](C(=O)O)CC4)n4ncnc(N)c34)[nH]c12 [OSI-027] (partner 0.5 µM) | 0.759
